Attribution: the nanobody polyreactivity screen of Harvey et al. (2022)

assay-procedure: yeast display, Sf9 membrane polyspecificity reagent, FACS + sequencing; frameworks hold sequencing errors
observed-property: polyreactivity (PSR sort gate)

// below: answered sequences
Answer with reported polyreactivity (PSR sort gate) of `QVQLVESGGGLVQAGGSLRLSCAASGIIFVKNAMGWYRPAPGKERELVAAISDNADSTYYADSVKGRFTISRDNAKNTVYLQMNSLKPEDTAVYYCAADWVHRTWLFWYTKYDYWGQGTQVTVSS` low polyreactivity

Answer with reported polyreactivity (PSR sort gate) of `QVQLVESGGRLVQAGGSLRLSCAAYGSTFQGYAMGWYRQAPGKERELVADISWSGGSTYYADSVKGRFTISRDNAKNTVYLQMNSLKPEDTAVYYCNAVGYLDFEWGQGTQVTVSS` low polyreactivity

Answer with reported polyreactivity (PSR sort gate) of `QVQLVESGGGLVQAGGSLRLSCAASGRTFGYYTMGWYRQAPGKEWELVATIRWSGGSTYADSVKGRFTISRDNAKNTVYLQLNSLKPEDTAVYYCYVDPSYYKILFNGFYYWGQGTQVTVSS` high polyreactivity

Answer with reported polyreactivity (PSR sort gate) of `QVQLVESGGGLVQAGGSLRLSCAASGSTFYYYVRGWYRQAPGKERELVAAINSGGSTYYADSVKGRFTISRDNAKNTVYLQMNSLKPEDTAVYYCAKSWSYWYQYYYWGQGSQVTVSS` low polyreactivity

Answer with reported polyreactivity (PSR sort gate) of `QVQLVESGGGLVQAGGSLRLSCAASGSIIDYYARGWYRQAPGKERELVAAISDSGSTYYADSVKGRFTISRDNAKNTVYLQMNSLKPEDTAVYYCAAVLWSPYRSEPLDTYEYWGQGTQVNVSS` low polyreactivity

Answer with reported polyreactivity (PSR sort gate) of `QVQLVESGGGLVQAGGSLRLICAASGFTFCLYAMGWYRQAPGKERELVADIDWDGGTYYADSVKGRFTISRDNAKNTVYLQMNSLKPEDTAVYYCAAELTEWTNGFDYWGQGTQETVSS` high polyreactivity

Answer with reported polyreactivity (PSR sort gate) of `QVQLVESGGGLVQAGGSLRLSCAASGSIFFTNAKGLSRQAPGKERELVAAITSSGTRTYYADSVKGRFTISRDNAKNTVYLQKNSLKPEDTAVYYCAVEVQYKYDYSHTYRYYYWGQGSQVTVSS` high polyreactivity

Answer with reported polyreactivity (PSR sort gate) of `QVQLVESGGGLVQAGGSLRLSCAASGRTFKYYAMGWYRQAPGKERELVATISFRGGSTYYADSVKGRFTISRDNAKNTVYLQMNSLKPEDTAVYYCAATTPYYTPRRRNDYWGQGTQVTVSS` high polyreactivity

Answer with reported polyreactivity (PSR sort gate) of `QVQLVESGGGLVQAGGSLRLSCAASGSTFTYYDMGWYRQAPGKERELVATIDSTTRTYYADSVKGRFTISRDNAKNTVYLQMNSLKPEDTAVYYCAADLTWAYFYYLFYRYDYWGQGTQVTVSS` low polyreactivity

Answer with reported polyreactivity (PSR sort gate) of `QVQLVESGGGLVQAGGSLRLSCAASGRIFRLYAMGWYRQAPGKERELGAAISSRGGDTYADSVKGRFTISRDNAKNTVYLQMNSLKPEDTAVYYCNDVIYYPYKSGVWYYEYDYWGQGTKVTVSS` low polyreactivity

# context switch: different sequence, same polyreactivity (PSR sort gate)
Answer with reported polyreactivity (PSR sort gate) of `QVQLVESGGGLVQAGGSLRLSCAASGSIFARYAMGWDRQAPGKERELVAAISSRGGSTYYADSVKGRFTISRDNAKNTVYLQMNSLKPADTAVYYCNKGYLVRQGDYWGQGTQVTVSS` high polyreactivity
